# Tested on: antibodies in sera from SARS patients (sera 1a, 1b, 2, 6, 37, 62, London, SARS-yellow, SARS-green)
# Format: binding, human
ASSAY METRIC: Binding of serum 1b to linear peptides of protein M of SARS-CoV Urbani
Give bare numbers.

primary_sequence=MWSFNPETNILLNVP val=0.5
primary_sequence=LVIGAVIIRGHLRMA val=0.5
primary_sequence=ARTRSMWSFNPETNI val=0.8
primary_sequence=LFARTRSMWSFNPET val=0.7

// batch mode: one Binding of serum 1b to linear peptides of protein M of SARS-CoV Urbani value per listed entry
1. ATSRTLSYYKLGASQ
2. RLFARTRSMWSFNPE
3. VTRPLMESELVIGAV

1. 0.5
2. 0.9
3. 0.6
